The reported numbers originate from patent US7902187B2.

# TEST SYSTEM: Jak3 (Homo sapiens, UniProt P52333)
# Sequence (P52333 508-1124): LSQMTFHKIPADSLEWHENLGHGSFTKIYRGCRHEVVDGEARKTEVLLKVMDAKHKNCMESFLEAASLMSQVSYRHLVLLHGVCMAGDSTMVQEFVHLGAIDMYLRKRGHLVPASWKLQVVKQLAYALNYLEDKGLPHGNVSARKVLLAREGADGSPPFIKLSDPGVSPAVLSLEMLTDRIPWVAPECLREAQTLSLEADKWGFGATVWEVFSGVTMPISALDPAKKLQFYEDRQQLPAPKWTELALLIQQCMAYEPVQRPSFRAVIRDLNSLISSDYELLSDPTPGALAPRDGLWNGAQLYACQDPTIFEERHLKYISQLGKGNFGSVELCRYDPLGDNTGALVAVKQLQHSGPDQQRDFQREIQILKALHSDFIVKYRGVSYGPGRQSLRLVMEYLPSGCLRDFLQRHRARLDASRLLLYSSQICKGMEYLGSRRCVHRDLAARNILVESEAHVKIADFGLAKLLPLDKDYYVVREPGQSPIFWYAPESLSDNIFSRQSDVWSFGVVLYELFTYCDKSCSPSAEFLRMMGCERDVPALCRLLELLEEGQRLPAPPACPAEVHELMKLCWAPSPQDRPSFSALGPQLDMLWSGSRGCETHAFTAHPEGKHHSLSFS
pIC50: −log10 of the molar value.
MEASUREMENT LABEL: pIC50

QUERY: Suppose we examine the compound Cn1c(=O)n([C@H]2CC[C@H](O)CC2)c2nc(-n3cnc4ccc(F)cc43)nc(N3CCC(F)(F)CC3)c21 ; what pIC50 value has been reported?
RESULT: > 7.00

QUERY: Report pIC50 for O=c1[nH]c2c(NCC3CC3)nc(-n3cnc4ccc(F)cc43)nc2n1[C@@H]1CCOc2c(F)cccc21 please.
RESULT: 6.00 to 7.00

QUERY: # pIC50 lookup, item N#Cc1ccc2ncn(-c3nc(N4CC(F)(F)C4)c4[nH]c(=O)n(C5CCOCC5)c4n3)c2c1
RESULT: > 7.00

QUERY: Which value of pIC50 has been reported for O=c1[nH]c2c(OCC3CC3)nc(-n3cnc4ccc(F)cc43)nc2n1C1CCOCC1 in the records?
RESULT: 6.00 to 7.00

QUERY: Form field: reported pIC50 of O=c1[nH]c2c(-c3ccccc3)nc(-n3cnc4ccc(F)cc43)nc2n1C1CCOCC1
RESULT: > 7.00

###

# TEST SYSTEM: Jak3 (Homo sapiens)
# Sequence (P52333 508-1124): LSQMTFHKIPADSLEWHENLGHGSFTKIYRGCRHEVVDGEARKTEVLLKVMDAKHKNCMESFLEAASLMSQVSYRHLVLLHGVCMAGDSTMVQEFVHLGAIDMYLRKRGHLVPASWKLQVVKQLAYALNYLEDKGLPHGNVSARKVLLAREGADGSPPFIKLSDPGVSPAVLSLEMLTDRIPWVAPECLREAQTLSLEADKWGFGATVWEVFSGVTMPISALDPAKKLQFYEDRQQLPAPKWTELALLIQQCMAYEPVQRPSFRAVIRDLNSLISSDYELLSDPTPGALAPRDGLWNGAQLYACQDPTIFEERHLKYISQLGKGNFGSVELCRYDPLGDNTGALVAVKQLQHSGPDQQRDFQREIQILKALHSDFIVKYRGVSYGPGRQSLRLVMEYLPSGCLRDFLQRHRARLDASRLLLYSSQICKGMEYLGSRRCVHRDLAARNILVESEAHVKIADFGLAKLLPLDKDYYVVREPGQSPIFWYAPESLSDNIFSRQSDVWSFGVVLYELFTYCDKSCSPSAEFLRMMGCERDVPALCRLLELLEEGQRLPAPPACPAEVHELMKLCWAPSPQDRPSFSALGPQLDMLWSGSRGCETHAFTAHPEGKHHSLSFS
pIC50: −log10 of the molar value.
MEASUREMENT LABEL: pIC50

QUERY: I am curious: what pIC50 value has been reported for Cn1c(=O)n([C@H]2CC[C@H](O)CC2)c2nc(-n3cnc4ccc(Cl)cc43)nc(N3CC[C@H](F)C3)c21 ?
RESULT: > 7.00

QUERY: Record request: pIC50 value, item O=c1[nH]c2c(Cl)nc(-n3cnc4ccc(F)cc43)nc2n1[C@@H]1CCOc2c(F)cccc21
RESULT: > 7.00

QUERY: Endpoint output: pIC50 of Cc1cccc(-c2nc(-n3cnc4ccc(F)cc43)nc3c2[nH]c(=O)n3C2CCOCC2)c1 . Value?
RESULT: 6.00 to 7.00

QUERY: Give its pIC50 value. Item: Cn1c(=O)n([C@H]2CC[C@H](O)CC2)c2nc(-n3cnc4ccc(F)cc43)nc(N3CC[C@H](F)C3)c21
RESULT: > 7.00

QUERY: Which pIC50 is reported for this compound? N#CCCCc1nc(-n2cnc3ccc(F)cc32)nc2c1[nH]c(=O)n2[C@@H]1CCOc2c(F)cccc21
RESULT: > 7.00

QUERY: What value of pIC50 has been reported for the following compound? CC(c1cccnc1)n1c(=O)[nH]c2c(N3CC(F)(F)C3)nc(-n3cnc4ccc(C#N)cc43)nc21 (stereo not shown)
RESULT: > 7.00

QUERY: If you can, please state the reported pIC50 value of C[C@H](Nc1nc(-n2cnc3ccc(F)cc32)nc2c1[nH]c(=O)n2C1CCOCC1)c1ccccc1 .
RESULT: 6.00 to 7.00
